Sourced from paper PMC13626384

For each record, write down the corresponding Papp.
assayName: PAMPA-BBB permeability assay
appliedConditions: PAMPA, Mean Permeability, PAMPA-BBB
Please answer using a numeric value trailed by its unit.

Exercise: Using the record for CC(C)C[C@H](NC(=O)[C@@H]1CSCCOCCOCCC(=O)N[C@@H](C(C)C)C(=O)N1)C(=O)[C@@]1(C)CO1 [Compound 41] , report its Papp.
Solution: 0.22 ×10⁻⁶ cm/s

Exercise: Please give the measured Papp for this molecule: CC(C)C[C@H](NC(=O)[C@@H]1CS(=O)(=O)CCCCCCCCCC(=O)N[C@@H](C(C)C)C(=O)N1)C(=O)[C@@]1(C)CO1 [Compound 40]
Solution: 3.34 ×10⁻⁶ cm/s

Exercise: Suppose we examine the molecule CC(C)C[C@H](NC(=O)[C@H](CCc1ccccc1)NC(=O)CN1CCOCC1)C(=O)N[C@@H](Cc1ccccc1)C(=O)N[C@@H](CC(C)C)C(=O)[C@@]1(C)CO1 [Carfilzomib, reference compound] ; what Papp value has been reported?
Solution: 1.43 ×10⁻⁶ cm/s

Exercise: # lookup: Papp of C[C@@]12OC(=O)[C@]1([C@@H](O)[C@@H]1C=CCCC1)NC(=O)[C@@H]2CCCl [Marizomib, reference compound]
Solution: 0.13 ×10⁻⁶ cm/s
